This section lists Ki readings for Melatonin receptor type 1B (Homo sapiens).
value-kind: Ki (nM)

1. CC(=O)NCCC1=C(Cc2ccccc2)Cc2ccc3c(c21)CCO3    0.0085
2. CC(=O)NCCC1=C(Br)Cc2ccc3c(c21)CCO3    0.014
3. CC(=O)NCCC1=C(c2csc3ccccc23)Cc2ccc3c(c21)CCO3    0.006
4. CC(=O)NCCC1=C(c2cccnc2)Cc2ccc3c(c21)CCO3    0.034
5. CC(=O)NCCC1=C(C(C)C)Cc2ccc3c(c21)CCO3    0.018
6. CCC(=O)NCCC1=C(C(C)C)Cc2ccc3c(c21)CCO3    0.011

---

Each entry below lists one item and its recorded Ratio Ki value.
# Organism: Homo sapiens
# test: Selectivity ratio, ratio of Ki for human MT1 receptor over Ki for human MT2 receptor
value-kind: Ratio Ki

1. CC(=O)NCCC1=C(c2cccnc2)Cc2ccc3c(c21)CCO3    2.1
2. CC(=O)NCCC1=C(c2cccc(C(C)C)c2)Cc2ccc3c(c21)CCO3    1200
3. COc1ccccc1C1=C(CCNC(C)=O)c2c(ccc3c2CCO3)C1    53
4. CC(=O)NCCC1=C(Cc2ccsc2)Cc2ccc3c(c21)CCO3    132
5. CC(=O)NCCC1=C(c2ccoc2)Cc2ccc3c(c21)CCO3    0.68
6. CC(=O)NCCC1=C(c2csc3ccccc23)Cc2ccc3c(c21)CCO3    220
7. CC(=O)NCCC1=C(Cc2ccccc2)Cc2ccc3c(c21)CCO3    316
8. CC(=O)NCCC1=C(CC2CCCCC2)Cc2ccc3c(c21)CCO3    799
9. CC(=O)NCCC1=C(Br)Cc2ccc3c(c21)CCO3    0.61
10. COc1ccc(C2=C(CCNC(C)=O)c3c(ccc4c3CCO4)C2)cc1    81
11. CCC(=O)NCCC1=C(C(C)C)Cc2ccc3c(c21)CCO3    1.3
12. CCNC(=O)NCCC1=C(C(C)C)Cc2ccc3c(c21)CCO3    13
13. CC(C)C1=C(CCNC(=O)C(F)(F)F)c2c(ccc3c2CCO3)C1    3.1
14. CC(=O)NCCC1=C(c2ccc(C(C)(C)C)cc2)Cc2ccc3c(c21)CCO3    1.8
15. CC(=O)NCCC1=CCc2ccc3c(c21)CCO3    2.1
16. CC(C)C1=C(CCNC(=O)C2CC2)c2c(ccc3c2CCO3)C1    3.2
17. COc1cccc(C2=C(CCNC(C)=O)c3c(ccc4c3CCO4)C2)c1    6.3
18. CC(=O)NCCC1=C(C(C)C)Cc2ccc3c(c21)CCO3    1.3

The reported measurements were obtained from ChEMBL document CHEMBL1772997.
